# PROTOCOL DETAILS: self-splicing fitness, log relative to wild type (ln ratio); higher = more splicing; Tetrahymena group I intron in knt gene, E. coli kanamycin selection, DiMSum; sequences stand for … in CUCUCU…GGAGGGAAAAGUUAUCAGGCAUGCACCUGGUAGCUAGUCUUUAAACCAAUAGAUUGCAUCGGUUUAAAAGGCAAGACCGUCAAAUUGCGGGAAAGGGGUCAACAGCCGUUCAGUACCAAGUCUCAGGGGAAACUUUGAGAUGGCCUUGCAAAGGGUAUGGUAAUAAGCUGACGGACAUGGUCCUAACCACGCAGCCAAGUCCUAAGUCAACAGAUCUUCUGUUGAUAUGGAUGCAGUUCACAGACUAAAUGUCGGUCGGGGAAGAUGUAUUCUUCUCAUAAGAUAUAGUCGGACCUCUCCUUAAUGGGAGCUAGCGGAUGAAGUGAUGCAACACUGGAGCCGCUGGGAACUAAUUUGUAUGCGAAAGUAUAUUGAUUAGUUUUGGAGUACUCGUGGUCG;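 also: selection with 25 µg/mL kanamycin versus none on LB agar overnight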
# CONDITION LABEL: 37 °C
Please note: Criterion met applies when self-splicing fitness (ln) is -0.9 or greater, and Criterion not met applies otherwise.

Please check the record ACUUAGCAAUAUUACGGCUG and state if its self-splicing fitness (ln) is at or above -0.9.
Criterion met

Please check the record GGCUAGCAAUAUUACGUACC and state if its self-splicing fitness (ln) is at or above -0.9.
Criterion met

Please check the record AUUGAGCAAUAUUACGGGUG and state if its self-splicing fitness (ln) is at or above -0.9.
Criterion not met

Please check the record GGAUAGCAAUAUUACGAAUG and state if its self-splicing fitness (ln) is at or above -0.9.
Criterion not met

Please check the record CCCGAGCAAUAUUACGGCAC and state if its self-splicing fitness (ln) is at or above -0.9.
Criterion not met

Please check the record CAGCAGCAAUAUUACGAAAG and state if its self-splicing fitness (ln) is at or above -0.9.
Criterion met

Please check the record GGGCAGCAAUAUUACGUGUC and state if its self-splicing fitness (ln) is at or above -0.9.
Criterion not met

Please check the record AUGGAGCAAUAUUACGUCCA and state if its self-splicing fitness (ln) is at or above -0.9.
Criterion met

Please check the record ACGUAGCAAUAUUACGGAAU and state if its self-splicing fitness (ln) is at or above -0.9.
Criterion not met

Please check the record CUUAAGCAAUAUUACGUUCU and state if its self-splicing fitness (ln) is at or above -0.9.
Criterion not met

Please check the record CUCGAGCAAUAUUACGUUAG and state if its self-splicing fitness (ln) is at or above -0.9.
Criterion not met

Please check the record GAGCAGCAAUAUUACGGCCA and state if its self-splicing fitness (ln) is at or above -0.9.
Criterion met

Please check the record ACAGAGCAAUAUUACGUCGU and state if its self-splicing fitness (ln) is at or above -0.9.
Criterion not met

Please check the record GCCCAGCAAUAUUACGGCGU and state if its self-splicing fitness (ln) is at or above -0.9.
Criterion met

Please check the record CACUAGCAAUAUUACGAGAG and state if its self-splicing fitness (ln) is at or above -0.9.
Criterion not met

* * *

# PROTOCOL DETAILS: self-splicing fitness, log relative to wild type (ln ratio); higher = more splicing; Tetrahymena group I intron in knt gene, E. coli kanamycin selection, DiMSum; sequences stand for … in CUCUCU…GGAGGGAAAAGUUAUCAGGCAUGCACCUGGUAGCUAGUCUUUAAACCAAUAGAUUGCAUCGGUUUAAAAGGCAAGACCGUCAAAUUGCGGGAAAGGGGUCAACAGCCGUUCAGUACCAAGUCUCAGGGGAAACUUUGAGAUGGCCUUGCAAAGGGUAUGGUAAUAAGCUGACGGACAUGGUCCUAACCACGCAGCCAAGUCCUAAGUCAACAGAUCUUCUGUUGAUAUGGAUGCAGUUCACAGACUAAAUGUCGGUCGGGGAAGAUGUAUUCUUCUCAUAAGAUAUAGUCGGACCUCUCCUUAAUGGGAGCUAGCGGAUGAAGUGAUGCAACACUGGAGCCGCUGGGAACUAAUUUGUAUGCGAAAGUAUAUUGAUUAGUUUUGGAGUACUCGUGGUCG
# CONDITION LABEL: 37 °C
Field: self-splicing fitness (ln). Provide a value for each of the sequences that follow.
Returns: the value as a bare number; no unit string appended.

Which self-splicing fitness (ln) value belongs to AUCGAGCAAUAUUACGGAGG ?
-0.942

Which self-splicing fitness (ln) value belongs to CGCAAGCAAUAUUACGAUCG ?
-0.342

Which self-splicing fitness (ln) value belongs to AGCAAGCAAUAUUACGCCUG ?
-2.54

Which self-splicing fitness (ln) value belongs to UAAGAGCAAUAUUACGCAUC ?
-3.46

Which self-splicing fitness (ln) value belongs to GAACAGCAAUAUUACGCAAA ?
-0.529

Which self-splicing fitness (ln) value belongs to UCGCAGCAAUAUUACGGAGG ?
-2.05

Which self-splicing fitness (ln) value belongs to CCUGAGCAAUAUUACGCUCC ?
-3.8

Which self-splicing fitness (ln) value belongs to CCGAAGCAAUAUUACGUCAG ?
-0.198

Which self-splicing fitness (ln) value belongs to AACCAGCAAUAUUACGGCGU ?
0.259

Which self-splicing fitness (ln) value belongs to UGUCAGCAAUAUUACGGGAU ?
-3.32

Which self-splicing fitness (ln) value belongs to CAAUAGCAAUAUUACGAGUC ?
-2.75

Which self-splicing fitness (ln) value belongs to AAAGAGCAAUAUUACGUGGG ?
-3.8

Which self-splicing fitness (ln) value belongs to UGAAAGCAAUAUUACGGUAC ?
-2.07

Which self-splicing fitness (ln) value belongs to ACGUAGCAAUAUUACGGACG ?
-0.579

Which self-splicing fitness (ln) value belongs to GCGUAGCAAUAUUACGGUAA ?
-0.178

Which self-splicing fitness (ln) value belongs to CAAUAGCAAUAUUACGUCAC ?
-2.71

Which self-splicing fitness (ln) value belongs to CGAUAGCAAUAUUACGCGUG ?
-0.431

Which self-splicing fitness (ln) value belongs to ACGAAGCAAUAUUACGGAUA ?
-2.43

Which self-splicing fitness (ln) value belongs to UGGAAGCAAUAUUACGUUUA ?
-0.47

Which self-splicing fitness (ln) value belongs to CUACAGCAAUAUUACGUCAU ?
-3.72

Which self-splicing fitness (ln) value belongs to AGUAAGCAAUAUUACGUCCG ?
-0.809

Which self-splicing fitness (ln) value belongs to CCUCAGCAAUAUUACGGUAU ?
-2.52

Which self-splicing fitness (ln) value belongs to AAAUAGCAAUAUUACGUCCG ?
0.00872

Which self-splicing fitness (ln) value belongs to UUUGAGCAAUAUUACGGUCA ?
-3.07

Which self-splicing fitness (ln) value belongs to AUGCAGCAAUAUUACGGUCC ?
-0.88

Which self-splicing fitness (ln) value belongs to CCCCAGCAAUAUUACGCGGA ?
-2.07

Which self-splicing fitness (ln) value belongs to ACAAAGCAAUAUUACGUGCG ?
-0.382

Which self-splicing fitness (ln) value belongs to AGACAGCAAUAUUACGAAUA ?
-1.62

Which self-splicing fitness (ln) value belongs to GCCUAGCAAUAUUACGCUCU ?
0.106

Which self-splicing fitness (ln) value belongs to UACCAGCAAUAUUACGCUAA ?
-0.492

Which self-splicing fitness (ln) value belongs to CGUGAGCAAUAUUACGAAAC ?
-0.708

Which self-splicing fitness (ln) value belongs to UCAAAGCAAUAUUACGUCGC ?
-2.43

Which self-splicing fitness (ln) value belongs to GUUGAGCAAUAUUACGCGCG ?
-1.51

Which self-splicing fitness (ln) value belongs to AGUCAGCAAUAUUACGCCCC ?
0.672

* * *

# PROTOCOL DETAILS: self-splicing fitness, log relative to wild type (ln ratio); higher = more splicing; Tetrahymena group I intron in knt gene, E. coli kanamycin selection, DiMSum; sequences stand for … in CUCUCU…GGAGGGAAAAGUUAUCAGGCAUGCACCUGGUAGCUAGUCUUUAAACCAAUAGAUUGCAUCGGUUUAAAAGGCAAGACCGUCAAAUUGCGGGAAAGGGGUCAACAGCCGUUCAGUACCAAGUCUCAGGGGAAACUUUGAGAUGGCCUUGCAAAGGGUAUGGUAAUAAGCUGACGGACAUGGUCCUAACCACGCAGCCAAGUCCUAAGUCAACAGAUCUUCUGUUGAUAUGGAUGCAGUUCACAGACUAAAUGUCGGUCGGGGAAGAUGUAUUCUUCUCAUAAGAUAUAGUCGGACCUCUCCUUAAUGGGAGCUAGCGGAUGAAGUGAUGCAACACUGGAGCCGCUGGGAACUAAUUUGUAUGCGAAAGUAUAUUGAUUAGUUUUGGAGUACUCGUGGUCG
# CONDITION LABEL: 30 °C
Please note: 1 applies when self-splicing fitness (ln) is -2 or greater, and -1 applies otherwise.

Please check the record CGGCAGCAAUAUUACGCUGC and state if its self-splicing fitness (ln) is at or above -2.
-1

Please check the record AACCAGCAAUAUUACGUCAU and state if its self-splicing fitness (ln) is at or above -2.
1

Please check the record UCUAAGCAAUAUUACGGAUA and state if its self-splicing fitness (ln) is at or above -2.
-1

Please check the record CAUCAGCAAUAUUACGCGAA and state if its self-splicing fitness (ln) is at or above -2.
-1

Please check the record CGGUAGCAAUAUUACGAGCU and state if its self-splicing fitness (ln) is at or above -2.
-1

Please check the record UCUAAGCAAUAUUACGAGGC and state if its self-splicing fitness (ln) is at or above -2.
-1

Please check the record UUAGAGCAAUAUUACGUACU and state if its self-splicing fitness (ln) is at or above -2.
-1

Please check the record GCGCAGCAAUAUUACGCGGU and state if its self-splicing fitness (ln) is at or above -2.
-1

Please check the record UGAAAGCAAUAUUACGUGUG and state if its self-splicing fitness (ln) is at or above -2.
1

Please check the record UAGAAGCAAUAUUACGCACU and state if its self-splicing fitness (ln) is at or above -2.
1

Please check the record ACAUAGCAAUAUUACGGUUA and state if its self-splicing fitness (ln) is at or above -2.
1

Please check the record UUGCAGCAAUAUUACGUCAG and state if its self-splicing fitness (ln) is at or above -2.
1

Please check the record UCUAAGCAAUAUUACGCAGU and state if its self-splicing fitness (ln) is at or above -2.
1

Please check the record GACUAGCAAUAUUACGAAGU and state if its self-splicing fitness (ln) is at or above -2.
-1

Please check the record UAACAGCAAUAUUACGCCAA and state if its self-splicing fitness (ln) is at or above -2.
-1

Please check the record AUCAAGCAAUAUUACGUAUG and state if its self-splicing fitness (ln) is at or above -2.
-1
